Target: wildtype LRRK2 (Homo sapiens, UniProt Q5S007)
Construct: expressed in transfected cells; host or cells: HEK293 (ATCC CRL-1573), transient transfection, mammalian expression vector with ubiquitin promoter
Sequence (Q5S007 whole entry): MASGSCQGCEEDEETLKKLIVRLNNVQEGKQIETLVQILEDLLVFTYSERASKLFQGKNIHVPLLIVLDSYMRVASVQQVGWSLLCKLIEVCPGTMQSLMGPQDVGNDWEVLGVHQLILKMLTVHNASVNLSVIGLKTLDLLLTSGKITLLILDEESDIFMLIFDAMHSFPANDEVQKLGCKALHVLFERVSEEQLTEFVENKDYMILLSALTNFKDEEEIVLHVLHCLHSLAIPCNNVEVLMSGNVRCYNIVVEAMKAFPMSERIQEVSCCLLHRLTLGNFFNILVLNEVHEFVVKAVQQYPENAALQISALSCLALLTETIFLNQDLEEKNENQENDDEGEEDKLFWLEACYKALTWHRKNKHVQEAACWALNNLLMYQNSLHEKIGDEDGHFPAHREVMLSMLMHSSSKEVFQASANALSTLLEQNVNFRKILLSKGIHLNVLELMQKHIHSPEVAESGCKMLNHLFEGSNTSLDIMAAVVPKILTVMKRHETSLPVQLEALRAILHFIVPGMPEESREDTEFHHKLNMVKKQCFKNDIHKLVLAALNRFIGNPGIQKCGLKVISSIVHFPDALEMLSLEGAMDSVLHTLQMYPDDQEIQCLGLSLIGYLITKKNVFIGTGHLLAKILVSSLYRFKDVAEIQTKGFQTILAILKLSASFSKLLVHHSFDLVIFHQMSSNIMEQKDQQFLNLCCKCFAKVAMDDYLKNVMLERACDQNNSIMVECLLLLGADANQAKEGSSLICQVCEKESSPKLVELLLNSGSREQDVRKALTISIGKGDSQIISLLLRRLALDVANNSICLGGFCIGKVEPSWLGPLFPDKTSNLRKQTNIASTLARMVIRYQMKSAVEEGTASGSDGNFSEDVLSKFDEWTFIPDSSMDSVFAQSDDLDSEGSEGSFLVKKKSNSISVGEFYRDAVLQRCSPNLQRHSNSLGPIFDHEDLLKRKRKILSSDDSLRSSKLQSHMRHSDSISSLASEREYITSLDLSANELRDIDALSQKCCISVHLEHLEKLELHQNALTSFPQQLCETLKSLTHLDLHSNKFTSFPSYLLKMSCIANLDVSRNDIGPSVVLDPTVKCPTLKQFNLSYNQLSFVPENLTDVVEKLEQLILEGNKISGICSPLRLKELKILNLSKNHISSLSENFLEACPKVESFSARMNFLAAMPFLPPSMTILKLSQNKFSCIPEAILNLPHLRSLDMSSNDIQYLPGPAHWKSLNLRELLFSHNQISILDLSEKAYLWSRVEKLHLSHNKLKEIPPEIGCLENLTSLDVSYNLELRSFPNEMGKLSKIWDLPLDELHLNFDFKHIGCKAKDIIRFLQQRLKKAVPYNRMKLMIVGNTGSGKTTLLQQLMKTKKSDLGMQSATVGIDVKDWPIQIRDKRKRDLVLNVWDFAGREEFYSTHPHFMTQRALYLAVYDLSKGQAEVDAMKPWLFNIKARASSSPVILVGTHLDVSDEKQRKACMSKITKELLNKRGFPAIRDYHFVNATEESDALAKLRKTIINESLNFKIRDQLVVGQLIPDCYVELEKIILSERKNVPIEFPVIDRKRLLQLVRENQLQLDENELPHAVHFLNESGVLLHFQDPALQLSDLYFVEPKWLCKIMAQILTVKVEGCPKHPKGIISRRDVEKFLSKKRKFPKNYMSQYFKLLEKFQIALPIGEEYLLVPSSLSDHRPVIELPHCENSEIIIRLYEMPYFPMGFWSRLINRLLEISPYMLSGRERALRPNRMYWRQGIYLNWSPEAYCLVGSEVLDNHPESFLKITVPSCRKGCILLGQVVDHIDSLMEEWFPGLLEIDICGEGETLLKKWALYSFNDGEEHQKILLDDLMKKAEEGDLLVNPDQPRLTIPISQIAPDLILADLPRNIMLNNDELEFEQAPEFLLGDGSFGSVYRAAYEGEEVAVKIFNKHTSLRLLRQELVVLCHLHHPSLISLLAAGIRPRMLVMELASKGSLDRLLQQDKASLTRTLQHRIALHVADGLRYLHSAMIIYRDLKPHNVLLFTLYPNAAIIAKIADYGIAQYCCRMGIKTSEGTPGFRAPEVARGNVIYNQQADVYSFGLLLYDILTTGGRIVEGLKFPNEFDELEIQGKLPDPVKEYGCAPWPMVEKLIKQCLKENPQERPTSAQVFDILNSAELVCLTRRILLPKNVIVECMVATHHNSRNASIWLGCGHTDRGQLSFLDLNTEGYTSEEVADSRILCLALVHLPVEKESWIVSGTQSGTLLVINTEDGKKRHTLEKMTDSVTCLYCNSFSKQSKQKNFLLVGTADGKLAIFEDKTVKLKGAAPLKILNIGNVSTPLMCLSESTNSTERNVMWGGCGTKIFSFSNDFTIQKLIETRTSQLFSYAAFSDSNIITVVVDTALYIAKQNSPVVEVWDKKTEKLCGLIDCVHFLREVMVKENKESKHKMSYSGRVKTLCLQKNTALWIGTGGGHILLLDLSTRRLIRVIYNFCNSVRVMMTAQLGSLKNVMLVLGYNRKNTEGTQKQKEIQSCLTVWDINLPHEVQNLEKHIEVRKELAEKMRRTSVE
Assay: LRRK2 degradation assay, HiBit-tagged wildtype LRRK2 expressed from plasmid in HEK293 cells (Nano-Glo Dual-Luciferase)
Type: cell-based
Conditions: HiBit-tagged wildtype LRRK2 in HEK293 cells, 24 hours; read-out: *WT DC50
Assign DC50 to each entry below.

Look up and state reported DC50 for CC1(Oc2ccc3[nH]nc(-c4ccnc(N5CCC(C(=O)N6CCC(CN7CCN(c8ccc9c(c8)C(=O)N(C8CCC(=O)NC8=O)C9=O)CC7)CC6)CC5)c4)c3c2)CC1 (stereo not drawn)
< 0.01 µM

Look up and state reported DC50 for CC1(Oc2ccc3[nH]nc(-c4ccnc(N5CCC(O[C@H]6CC[C@H](OC7CCN(c8ccc9c(c8)C(=O)N(C8CCC(=O)NC8=O)C9=O)CC7)CC6)CC5)c4)c3c2)CC1 (stereo partly drawn)
0.01 to 0.05 µM

Look up and state reported DC50 for CC1(Oc2ccc3[nH]nc(-c4ccnc(N5CCC(O[C@H]6C[C@H](OC7CCN(c8ccc9c(c8)C(=O)N(C8CCC(=O)NC8=O)C9=O)CC7)C6)CC5)c4)c3c2)CC1 (stereo partly drawn)
0.01 to 0.05 µM

====

Molecular target: wildtype LRRK2 (Homo sapiens, UniProt Q5S007)
Construct: expressed in transfected cells; host or cells: HEK293 (ATCC CRL-1573), transient transfection, mammalian expression vector with ubiquitin promoter
Experiment: LRRK2 degradation assay, HiBit-tagged wildtype LRRK2 expressed from plasmid in HEK293 cells (Nano-Glo Dual-Luciferase)
Format: cell-based
Details: HiBit-tagged wildtype LRRK2 in HEK293 cells, 24 hours; read-out: **WT Dmax (%)
Assign Dmax to each entry below.

Look up and state reported Dmax for CC1(Oc2ccc3[nH]nc(-c4ccnc(N5CCC(C(=O)N6CCC(CC7CCN(c8ccc9c(c8)C(=O)N(C8CCC(=O)NC8=O)C9=O)CC7)CC6)CC5)c4)c3c2)CC1 (centres unmarked)
< 50%

Look up and state reported Dmax for CC1(Oc2ccc3[nH]nc(-c4cc(N5CCC(O[C@H]6CCN(CC7CCN(c8ccc9c(c8)C(=O)N(C8CCC(=O)NC8=O)C9=O)CC7)C6)CC5)ncn4)c3c2)CC1 (some centres unmarked)
< 50%

Look up and state reported Dmax for C[C@H]1CN(c2cc(-c3n[nH]c4ccc(OC5(C)CC5)cc34)ccn2)CCN1CC1(F)CCN(CC2CCN(c3ccc4c(c3)C(=O)N(C3CCC(=O)NC3=O)C4=O)CC2)CC1 (some centres unmarked)
< 50%

Look up and state reported Dmax for CC1(Oc2ccc3[nH]nc(-c4cc(N5CCC(CN6CC[C@H](CN7CCN(c8ccc9c(c8)C(=O)N(C8CCC(=O)NC8=O)C9=O)CC7)C6)CC5)ncn4)c3c2)CC1 (some centres unmarked)
50 to 70%

Look up and state reported Dmax for C[C@H]1CN(c2cc(-c3n[nH]c4ccc(OC5(C)CC5)cc34)ncn2)CCN1CC1CN(CC2CCN(c3ccc4c(c3)C(=O)N(C3CCC(=O)NC3=O)C4=O)CC2)C1 (some centres unmarked)
50 to 70%

====

Assign DC50 to each entry below.
Target: wildtype LRRK2 (Homo sapiens, UniProt Q5S007)
Construct: expressed in transfected cells; host or cells: HEK293 (ATCC CRL-1573), transient transfection, mammalian expression vector with ubiquitin promoter
Assay: LRRK2 degradation assay, HiBit-tagged wildtype LRRK2 expressed from plasmid in HEK293 cells (Nano-Glo Dual-Luciferase)
Assay type: cell-based
Conditions: HiBit-tagged wildtype LRRK2 in HEK293 cells, 24 hours; read-out: *WT DC50

Look up and state reported DC50 for CC1(Oc2ccc3[nH]nc(-c4cc(N5CCC(CN6CC[C@H](OC7CCN(c8ccc9c(c8)C(=O)N(C8CCC(=O)NC8=O)C9=O)CC7)C6)CC5)ncn4)c3c2)CC1 (stereo partly drawn) [Compound 118]
10 to 50 nM

Look up and state reported DC50 for CC1(Oc2ccc3[nH]nc(-c4cc(N5CCC(CN6CC[C@@H](CN7CCN(c8ccc9c(c8)C(=O)N(C8CCC(=O)NC8=O)C9=O)CC7)C6)CC5)ncn4)c3c2)CC1 (stereo partly drawn) [Compound 115]
< 10 nM

Look up and state reported DC50 for CC1(Oc2ccc3n[nH]c(-c4cc(N5CC(F)(CN6CCN(CC7CCN(c8ccc9c(c8)C(=O)N(C8CCC(=O)NC8=O)C9=O)CC7)CC6)C5)ncn4)c3c2)CC1 (stereo not drawn) [Compound 131]
< 10 nM

Look up and state reported DC50 for C[C@H]1CN(c2cc(-c3n[nH]c4ccc(OC5(C)CC5)cc34)ncn2)CCN1C[C@H]1CCN(CC2CCN(c3ccc4c(c3)C(=O)N(C3CCC(=O)NC3=O)C4=O)CC2)C1 (stereo partly drawn) [Compound 111]
< 10 nM

Look up and state reported DC50 for CC1(Oc2ccc3[nH]nc(-c4ccnc(N5CCN(CC6(F)CCN(CC7CCN(c8ccc9c(c8)C(=O)N(C8CCC(=O)NC8=O)C9=O)CC7)CC6)CC5)c4)c3c2)CC1 (stereo not drawn) [Compound 80]
< 10 nM

Look up and state reported DC50 for C[C@H]1CN(c2cc(-c3n[nH]c4cc(F)c(OC5(C)CC5)cc34)ncn2)CCN1CC1(F)CCN(CC2CCN(c3ccc4c(c3)C(=O)N(C3CCC(=O)NC3=O)C4=O)CC2)CC1 (stereo partly drawn) [Compound 106]
< 10 nM

====

Assign DC50 to each entry below.
Target: wildtype LRRK2 (Homo sapiens, UniProt Q5S007)
Construct: expressed in transfected cells; host or cells: HEK293 (ATCC CRL-1573), transient transfection, mammalian expression vector with ubiquitin promoter
Experiment: LRRK2 degradation assay, HiBit-tagged wildtype LRRK2 expressed from plasmid in HEK293 cells (Nano-Glo Dual-Luciferase)
Format: cell-based
Settings: HiBit-tagged wildtype LRRK2 in HEK293 cells, 24 hours; read-out: *WT DC50
Method: Exemplary Assay for Testing LRRK2 Degradation Driven by Exemplary Hetero-Bifunctional Compounds Designed to Target LRRK2 […] While the transfection mixes were incubating, HEK293 cells (acquired from ATCC; ATCC CRL-1573) were harvested with trypsin. […] The cells were mixed well and counted. […] Developing Plates and Analyzing Data. […] Optically clear seals were added to each plate and each plate was incubated for 20 minutes with shaking for at least 10 minutes, and then read on a plate reader. […]

Look up and state reported DC50 for CC1(Oc2ccc3[nH]nc(-c4cc(N5CCN(CC6CCN(CCCCNc7cccc8c7CN(C7CCC(=O)NC7=O)C8=O)CC6)CC5)ncn4)c3c2)CC1 (centres unmarked) [Compound 143]
0.01 to 0.05 µM

Look up and state reported DC50 for C[C@H]1CN(c2cc(-c3n[nH]c4ccc(OC5(C)CC5)cc34)ncn2)CCN1CC1CCN(CCCNc2cccc3c2C(=O)N(C2CCC(=O)NC2=O)C3=O)CC1 (some centres unmarked) [Compound 140]
< 0.01 µM

Look up and state reported DC50 for CC1(Oc2ccc3[nH]nc(-c4ccnc(N5CC(F)(CN6CCN(CC7CCN(c8ccc9c(c8)C(=O)N(C8CCC(=O)NC8=O)C9=O)CC7)CC6)C5)c4)c3c2)CC1 (centres unmarked) [Compound 132]
< 0.01 µM

Look up and state reported DC50 for CC1(Oc2ccc3[nH]nc(-c4ccnc(N5CCN(CC6(F)CCN(C(=O)C7CCN(c8ccc9c(c8)C(=O)N(C8CCC(=O)NC8=O)C9=O)CC7)CC6)CC5)c4)c3c2)CC1 (centres unmarked) [Compound 97]
< 0.01 µM

Look up and state reported DC50 for CC1(Oc2ccc3n[nH]c(-c4cc(N5CCC(COC6CCN(CC7CCN(c8ccc9c(c8)C(=O)N(C8CCC(=O)NC8=O)C9=O)CC7)CC6)CC5)ncn4)c3c2)CC1 (centres unmarked) [Compound 61]
< 0.01 µM

====

Assign Dmax to each entry below.
Target: wildtype LRRK2 (Homo sapiens, UniProt Q5S007)
Construct: expressed in transfected cells; host or cells: HEK293 (ATCC CRL-1573), transient transfection, mammalian expression vector with ubiquitin promoter
Experiment: LRRK2 degradation assay, HiBit-tagged wildtype LRRK2 expressed from plasmid in HEK293 cells (Nano-Glo Dual-Luciferase)
Type: cell-based
Details: HiBit-tagged wildtype LRRK2 in HEK293 cells, 24 hours; read-out: **WT Dmax (%)

Report value: Dmax, system: wildtype LRRK2 (Homo sapiens, UniProt Q5S007), molecule: CC1(Oc2ccc3[nH]nc(-c4ccnc(N5CCN(CC6(F)CCN(CC7CCN(c8ccc9c(c8)C(=O)N(C8CCC(=O)NC8=O)C9=O)CC7)CC6)CC5)c4)c3c2)CC1 (stereo not drawn)
< 50%

Report value: Dmax, system: wildtype LRRK2 (Homo sapiens, UniProt Q5S007), molecule: CC1(Oc2ccc3n[nH]c(-c4cc(N5CCC(CN6CCN(CC7CCN(c8cccc9c8CN(C8CCC(=O)NC8=O)C9=O)CC7)CC6)CC5)ncn4)c3c2)CC1 (stereo not drawn)
≥ 70%

Report value: Dmax, system: wildtype LRRK2 (Homo sapiens, UniProt Q5S007), molecule: C[C@H]1CN(c2cc(-c3n[nH]c4ccc(OC5(C)CC5)cc34)ncn2)CCN1CCN1CCN(C(=O)C2CCN(c3ccc4c(c3)C(=O)N(C3CCC(=O)NC3=O)C4=O)CC2)CC1 (stereo partly drawn)
≥ 70%
